# inhibition at 40 µM per entry
molecular target: PTP-1B (Homo sapiens, UniProt P18031); experiment: PTPase inhibition assay (DIFMUP fluorescence kinetic assay); assay type: biochemical; conditions: inhibitor at 40 μM; from average velocity (Va); 20 μM DIFMUP, 1 nM enzyme
Value expressed in %; do not type the unit.

Query: Look up and report measured inhibition at 40 µM for this entry: `CC(C)c1cc(OCc2ccc(C(F)(F)F)cc2)nc(-c2cc(Cl)cc(Cl)c2)n1`
Result: 57

Query: Look up and report measured inhibition at 40 µM for this entry: `CC(C)c1cc(OCc2ccc(C(F)(F)F)cc2)nc(-c2cccc([N+](=O)[O-])c2)n1`
Result: 49

Query: Look up and report measured inhibition at 40 µM for this entry: `O=C(O)c1ccc(COc2cc(-c3ccccc3)nc(-c3ccc(Cl)cc3)n2)cc1`
Result: 100

Query: Look up and report measured inhibition at 40 µM for this entry: `O=[N+]([O-])c1cccc(-c2nc3c(c(OCc4ccc(C(F)(F)F)cc4)n2)CN(Cc2ccccc2)CC3)c1`
Result: 51

Query: Look up and report measured inhibition at 40 µM for this entry: `CC(C)c1cc(OCc2ccc(C#N)cc2)nc(-c2cccc([N+](=O)[O-])c2)n1`
Result: 55

Query: Look up and report measured inhibition at 40 µM for this entry: `O=C(O)c1ccc(COc2nc(-c3cccc([N+](=O)[O-])c3)nc3c2CN(Cc2ccccc2)CC3)cc1`
Result: 93

Query: Look up and report measured inhibition at 40 µM for this entry: `CC(C)c1cc(OCc2ccc(C(=O)O)cc2)nc(-c2cc(Cl)cc(Cl)c2)n1`
Result: 101

Query: Look up and report measured inhibition at 40 µM for this entry: `FC(F)(F)c1ccc(COc2nc(-c3cc(Cl)cc(Cl)c3)nc3c2CN(Cc2ccccc2)CC3)cc1`
Result: 52

Query: Look up and report measured inhibition at 40 µM for this entry: `N#Cc1ccc(COc2nc(-c3cccc([N+](=O)[O-])c3)nc3c2CN(Cc2ccccc2)CC3)cc1`
Result: 64

Query: Look up and report measured inhibition at 40 µM for this entry: `Fc1ccc(COc2cc(-c3ccccc3)nc(-c3ccncc3)n2)cc1`
Result: 11

* * *

Biological target: PTP-1B (Homo sapiens)
Sequence (P18031 1-435): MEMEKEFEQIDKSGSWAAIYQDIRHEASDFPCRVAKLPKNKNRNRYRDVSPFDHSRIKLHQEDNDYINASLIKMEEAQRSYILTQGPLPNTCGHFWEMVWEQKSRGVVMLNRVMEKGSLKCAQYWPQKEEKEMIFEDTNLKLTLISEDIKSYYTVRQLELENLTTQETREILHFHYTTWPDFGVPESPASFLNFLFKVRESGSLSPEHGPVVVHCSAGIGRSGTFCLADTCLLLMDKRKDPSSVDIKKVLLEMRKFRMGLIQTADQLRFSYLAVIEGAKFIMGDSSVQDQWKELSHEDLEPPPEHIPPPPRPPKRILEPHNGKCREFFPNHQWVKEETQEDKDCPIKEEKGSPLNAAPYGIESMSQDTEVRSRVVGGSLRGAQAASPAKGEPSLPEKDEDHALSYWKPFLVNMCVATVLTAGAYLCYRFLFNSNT
Test: PTPase inhibition assay (DIFMUP fluorescence kinetic assay)
Type: biochemical
Details: inhibitor at 40 μM; from average velocity (Va); 20 μM DIFMUP, 1 nM enzyme
Cut-off 60% on inhibition at 40 µM, inclusive. At or above means YES; below means NO.

1) Fc1ccc(COc2nc(-c3cc(Cl)cc(Cl)c3)nc3c2CN(Cc2ccccc2)CC3)cc1 [Example 9]: NO
2) Fc1ccc(COc2cc(-c3ccccc3)nc(-c3ccc(Cl)cc3)n2)cc1 [Example 5]: NO
3) CC(C)c1cc(OCc2ccc(F)cc2)nc(-c2cc(Cl)cc(Cl)c2)n1 [Example 8]: NO
4) Fc1ccc(COc2nc(-c3ccc(Cl)cc3)nc3c2CCC3)cc1 [Example 2]: NO

Query: Could you tell me if the measured inhibition at 40 µM of O=C(O)c1ccc(COc2cc(-c3ccccc3)nc(-c3ccccc3)n2)cc1 [Example 7] reaches 60% or more?
Result: YES

From: patent US7423044B2
